- Assay Target: recombinant His-tag Wip1 full length protein (amino acids #1-605) (Homo sapiens (Human))
- Sequence (O15297 whole entry): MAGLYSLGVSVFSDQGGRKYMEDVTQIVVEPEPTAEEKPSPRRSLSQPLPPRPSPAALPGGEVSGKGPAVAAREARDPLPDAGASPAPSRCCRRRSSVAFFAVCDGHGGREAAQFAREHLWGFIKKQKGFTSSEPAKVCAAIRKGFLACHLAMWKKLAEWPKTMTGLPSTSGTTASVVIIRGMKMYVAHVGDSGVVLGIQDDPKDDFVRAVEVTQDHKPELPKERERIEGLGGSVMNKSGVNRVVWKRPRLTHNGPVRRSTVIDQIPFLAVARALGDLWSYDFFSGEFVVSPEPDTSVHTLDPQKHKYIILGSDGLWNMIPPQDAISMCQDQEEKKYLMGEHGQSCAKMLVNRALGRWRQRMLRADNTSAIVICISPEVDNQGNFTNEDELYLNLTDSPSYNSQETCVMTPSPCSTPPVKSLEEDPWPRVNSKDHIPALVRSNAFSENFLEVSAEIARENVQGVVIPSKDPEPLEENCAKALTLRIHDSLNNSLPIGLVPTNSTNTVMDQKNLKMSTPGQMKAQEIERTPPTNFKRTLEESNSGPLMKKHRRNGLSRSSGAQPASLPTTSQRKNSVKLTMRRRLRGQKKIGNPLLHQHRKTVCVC
- Assay Notes: Wip1 full length phosphatase enzyme FDP assay
- Measurement Setup: fluorescein diphosphate (FDP) substrate, RT 2 hours, fluorescence Ex485/Em535
Measurement Kind: IC50 (nM)

(1) CNC(=O)C12CC(NC(=O)[C@H](CC3CCCC3)NC(=O)c3ccc([C@H](C)Nc4cc(Cl)cnc4C)s3)(C1)C2
(2) Cc1ncc(Cl)cc1NC(C)c1ncc(C(=O)N[C@@H](CC2CCCC2)C(=O)NC2CC2)s1 (some centres unmarked)
Input line: Between 1 and 2 , whose recorded IC50 is greater? Give the label under which the chosen entry appears.
Output line: 2
(2: 70 nM, 1: 14 nM)
